All values here come from paper PMC4606517.

biological target: Ago2 wild type (Homo sapiens) (UniProt Q9UKV8); assay: filter binding; conditions: 5'-phosphate on guide; target nt 9 (N) = inosine; Filter binding: 30 mM Tris pH 8.0, 0.1 M K acetate, 2 mM Mg acetate, 0.5 mM TCEP, 0.005% NP-40, 0.01 mg/ml yeast tRNA, room temp, 45 min, 0.1 nM target …
Sequence (Q9UKV8 whole entry): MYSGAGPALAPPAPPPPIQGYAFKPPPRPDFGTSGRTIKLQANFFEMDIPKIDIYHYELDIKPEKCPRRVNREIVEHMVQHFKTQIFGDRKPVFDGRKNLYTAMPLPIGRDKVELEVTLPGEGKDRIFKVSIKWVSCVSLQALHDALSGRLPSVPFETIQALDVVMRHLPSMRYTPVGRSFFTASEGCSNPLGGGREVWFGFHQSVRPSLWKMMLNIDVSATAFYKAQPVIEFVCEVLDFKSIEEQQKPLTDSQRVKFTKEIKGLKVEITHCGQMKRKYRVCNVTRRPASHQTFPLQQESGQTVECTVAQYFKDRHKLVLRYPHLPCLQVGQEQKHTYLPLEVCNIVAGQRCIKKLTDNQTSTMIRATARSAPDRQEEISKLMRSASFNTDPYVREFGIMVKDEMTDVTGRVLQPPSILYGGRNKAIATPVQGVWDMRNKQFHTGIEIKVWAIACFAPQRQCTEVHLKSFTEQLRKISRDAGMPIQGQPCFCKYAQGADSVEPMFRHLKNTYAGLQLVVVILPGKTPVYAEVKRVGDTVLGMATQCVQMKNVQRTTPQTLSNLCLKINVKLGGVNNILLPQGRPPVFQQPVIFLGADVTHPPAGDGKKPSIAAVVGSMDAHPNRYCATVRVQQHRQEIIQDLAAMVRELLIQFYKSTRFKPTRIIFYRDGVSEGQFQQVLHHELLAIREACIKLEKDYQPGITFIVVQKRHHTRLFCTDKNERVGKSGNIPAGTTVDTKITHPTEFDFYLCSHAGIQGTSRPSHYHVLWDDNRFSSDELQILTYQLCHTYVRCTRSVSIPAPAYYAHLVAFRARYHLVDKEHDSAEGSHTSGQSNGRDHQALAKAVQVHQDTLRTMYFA
MEASURED ATTRIBUTE: Kd (nM)
Answers are plain numbers, in nM.

Look at this sequence and give its reported Kd. UUCACAUUGCCCAAGUCUCUU / CAAUGUGANAA [guide + t1I target]
1.7
